The reported numbers originate from patent US10399940B2.

Target: F508delCFTR (Homo sapiens, UniProt P13569, DEL508-508)
Construct: expressed in transfected cells; host or cells: CFBE41o- (human lung derived epithelial cell line), doxycycline-inducible expression
Sequence (P13569 with tags, fused parts or gaps DEL508-508): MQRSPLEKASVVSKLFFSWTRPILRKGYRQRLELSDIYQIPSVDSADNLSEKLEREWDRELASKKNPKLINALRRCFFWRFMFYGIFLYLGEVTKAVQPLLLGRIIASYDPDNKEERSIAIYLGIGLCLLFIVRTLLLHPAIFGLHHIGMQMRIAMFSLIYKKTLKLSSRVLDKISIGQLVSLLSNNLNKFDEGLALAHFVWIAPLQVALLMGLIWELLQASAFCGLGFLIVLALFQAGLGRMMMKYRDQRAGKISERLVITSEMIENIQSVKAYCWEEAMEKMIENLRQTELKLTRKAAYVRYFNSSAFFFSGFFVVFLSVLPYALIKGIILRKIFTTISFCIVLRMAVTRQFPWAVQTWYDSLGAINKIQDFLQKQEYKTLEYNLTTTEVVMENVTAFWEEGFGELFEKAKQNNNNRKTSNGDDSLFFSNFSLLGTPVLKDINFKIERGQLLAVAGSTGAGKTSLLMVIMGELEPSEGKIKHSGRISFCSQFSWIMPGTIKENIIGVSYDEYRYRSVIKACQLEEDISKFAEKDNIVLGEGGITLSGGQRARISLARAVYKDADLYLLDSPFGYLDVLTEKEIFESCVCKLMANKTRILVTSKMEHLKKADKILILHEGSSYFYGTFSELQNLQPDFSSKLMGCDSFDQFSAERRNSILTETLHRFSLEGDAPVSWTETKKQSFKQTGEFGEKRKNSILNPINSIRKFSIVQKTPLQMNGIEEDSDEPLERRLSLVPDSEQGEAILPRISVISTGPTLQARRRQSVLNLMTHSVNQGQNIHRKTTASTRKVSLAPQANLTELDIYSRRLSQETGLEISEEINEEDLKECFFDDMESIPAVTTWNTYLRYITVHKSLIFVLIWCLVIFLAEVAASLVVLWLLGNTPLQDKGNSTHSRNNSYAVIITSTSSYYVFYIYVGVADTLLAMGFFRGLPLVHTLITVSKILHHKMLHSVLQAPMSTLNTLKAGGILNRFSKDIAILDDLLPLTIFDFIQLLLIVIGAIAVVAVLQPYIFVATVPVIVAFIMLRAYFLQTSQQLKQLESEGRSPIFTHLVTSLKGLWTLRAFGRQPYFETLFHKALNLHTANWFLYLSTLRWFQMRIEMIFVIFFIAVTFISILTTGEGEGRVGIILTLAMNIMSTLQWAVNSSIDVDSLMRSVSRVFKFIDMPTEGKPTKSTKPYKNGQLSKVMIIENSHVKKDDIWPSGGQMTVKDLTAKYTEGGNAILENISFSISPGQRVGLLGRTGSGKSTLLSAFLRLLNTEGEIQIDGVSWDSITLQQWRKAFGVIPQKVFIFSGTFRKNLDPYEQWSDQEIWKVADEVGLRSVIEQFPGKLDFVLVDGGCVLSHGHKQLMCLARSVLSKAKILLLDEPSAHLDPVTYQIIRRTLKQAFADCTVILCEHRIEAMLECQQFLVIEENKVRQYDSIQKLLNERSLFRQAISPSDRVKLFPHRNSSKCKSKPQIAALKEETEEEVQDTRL
Test: Cell Surface Expression-Horse Radish Peroxidase (CSE-HRP) assay;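 further: % of on-plate positive control (2 µM of the co-corrector compound) after DMSO subtraction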
Type: cell-based
Details: CFBE41o-F508delCFTR-HRP cells; with co-corrector (2 μM); normalized to on-plate positive control; highest concentration 20 μM
Excerpt: Cell Surface Expression-Horse Radish Peroxidase (CSE-HRP) Assay […] The maximum % activity achieved for the test compound either without or with a co-corrector at any tested concentration is presented in Table 1 along with the respective EC50's calculated using the following general sigmoidal curve with variable Hill slope equation (described as Model 42 in the Accelrys® Assay Explorer v3.3 software): y=(a−d)/(1+(x/c)^b)+d […]
VALUE_KIND: Maximum % activity (with co-corrector)

[
  {
    "ENTRY_SMILES": "COc1ccc(C(C)(C)C)cc1CO[C@H]1[C@H](C(C)(C)C)[C@@H](C(=O)O)N(C(=O)[C@@H]2CCC[C@@H](OC)C2)[C@H]1c1ccccc1",
    "TEST_VALUE": "+++ (≥350)"
  },
  {
    "ENTRY_SMILES": "COc1ncc(C(F)(F)F)cc1CO[C@H]1[C@H](C(C)(C)C)[C@@H](C(=O)O)N(C(=O)[C@@H]2CCCCO2)[C@H]1c1ccccc1Br",
    "TEST_VALUE": "+++ (≥350)"
  },
  {
    "ENTRY_SMILES": "COc1ncc(Br)cc1CO[C@H]1[C@H](C(C)(C)C)[C@@H](C(=O)O)N(C(=O)C2CCCCC2)[C@H]1c1ccccc1F",
    "TEST_VALUE": "+++ (≥350)"
  }
]
